All values here come from paper PMC5499577.

biological target: the molecule itself; assay: AUC
Reported metric: pKd
Worth noting: pKd values are minus log10 of concentrations stated in mol/L.

{"columns": ["Protein", "pKd"],
 "data": [
  ["LI Int with the coiled-coil motif deleted, IntΔCC (Δ342-416) (enzyme, Listeria innocua (prophage), UniProt Q928V6 1-452, looked up) MKAAIYIRVSTQEQVENYSIQAQTEKLTALCRSKDWDVYDTFIDGGYSGSNMNRPALNEMLSKLHEIDAVVVYRLDRLSRSQKDTITLIEEYFLKNNVEFVSLSETLDTSSPFGRAMIGILSVFAQLERETIRDRMVMGKIKRIEAGLPLTTAKGRTFGYDVIDTKLYINEEEAKQLRLIYDIFEEEQSITFLQKRLKKLGFKVRTYNRYNNWLTNDLYCGYVSYKDKVHVKGIHEPIISEEQFYRVQEIFSRMGKNPNMNKESASLLNNLVVCSKCGLGFVHRRKDTVSRGKKYHYRYYSCKTYKHTHELEKCGNKIWRADKLEELIIDRVNNYSFASRNATVDFNSLEFREKQLYLKSLINKIYIDGEQVTIEWL", 5.24],
  ["LI Int carboxy-terminal domain, CTD (133-452) (domain or fragment, Listeria innocua (prophage), UniProt Q928V6 133-452, looked up) RDRMVMGKIKRIEAGLPLTTAKGRTFGYDVIDTKLYINEEEAKQLRLIYDIFEEEQSITFLQKRLKKLGFKVRTYNRYNNWLTNDLYCGYVSYKDKVHVKGIHEPIISEEQFYRVQEIFSRMGKNPNMNKESASLLNNLVVCSKCGLGFVHRRKDTVSRGKKYHYRYYSCKTYKHTHELEKCGNKIWRADKLEELIIDRVNNYSFASRNIDKEDELDSLNEKLKIEHAKKKRLFDLYINGSYEVSELDSMMNDIDAQINYYEAQIEANEELKKNKKIQENLADLATVDFNSLEFREKQLYLKSLINKIYIDGEQVTIEWL", 4.73]
]}

Turning to the following protein.
Entry LI Int CTD Y369A (133-452) (domain or fragment, Listeria innocua (prophage), UniProt Q928V6 133-452, looked up) RDRMVMGKIKRIEAGLPLTTAKGRTFGYDVIDTKLYINEEEAKQLRLIYDIFEEEQSITFLQKRLKKLGFKVRTYNRYNNWLTNDLYCGYVSYKDKVHVKGIHEPIISEEQFYRVQEIFSRMGKNPNMNKESASLLNNLVVCSKCGLGFVHRRKDTVSRGKKYHYRYYSCKTYKHTHELEKCGNKIWRADKLEELIIDRVNNYSFASRNIDKEDELDSLNEKLKIEHAKKKRLFDLAINGSYEVSELDSMMNDIDAQINYYEAQIEANEELKKNKKIQENLADLATVDFNSLEFREKQLYLKSLINKIYIDGEQVTIEWL , pKd reported as 3.54
